Recorded EC50, one value per entry.
MEASURED_TARGET: UniProtKB Q9UBJ2
Sequence (Q9UBJ2 1-740): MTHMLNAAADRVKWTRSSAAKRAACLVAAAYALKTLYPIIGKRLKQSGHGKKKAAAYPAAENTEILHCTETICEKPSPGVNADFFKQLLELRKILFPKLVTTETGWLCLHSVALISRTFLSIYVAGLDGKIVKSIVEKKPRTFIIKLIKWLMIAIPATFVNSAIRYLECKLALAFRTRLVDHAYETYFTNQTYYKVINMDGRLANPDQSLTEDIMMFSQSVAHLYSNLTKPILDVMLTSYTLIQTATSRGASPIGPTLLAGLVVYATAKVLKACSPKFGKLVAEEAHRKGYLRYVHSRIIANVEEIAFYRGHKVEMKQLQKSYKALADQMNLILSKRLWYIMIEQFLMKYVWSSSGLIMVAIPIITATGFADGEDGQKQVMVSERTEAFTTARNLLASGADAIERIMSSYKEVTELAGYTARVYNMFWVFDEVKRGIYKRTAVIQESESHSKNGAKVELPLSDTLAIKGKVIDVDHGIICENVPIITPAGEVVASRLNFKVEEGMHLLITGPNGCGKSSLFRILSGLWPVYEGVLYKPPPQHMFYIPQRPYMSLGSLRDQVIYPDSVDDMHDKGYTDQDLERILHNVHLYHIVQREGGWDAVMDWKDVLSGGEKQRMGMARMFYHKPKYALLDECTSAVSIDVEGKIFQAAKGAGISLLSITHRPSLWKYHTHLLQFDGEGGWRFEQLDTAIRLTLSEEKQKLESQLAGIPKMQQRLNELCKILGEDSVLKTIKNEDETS
PROTOCOL_NOTES: D2 correction dose-response assay: ABCD2 WT HiBit protein expression
CONDITION_NOTES: HEK-293/ABCD2 WT cells, 24 hours treatment, HiBit luminescence; class combines EC50 and Mean MaxAct (fold); read-out: ABCD2 WT EC50, Emax

Here is how some compounds turned out for EC50.
Cc1cc(C)c(Oc2nc(-c3cncc(Cl)c3)ccc2N(C)S(C)(=O)=O)c(C)c1
< 1 µM
Cc1cc(C)c(Oc2nc(-c3cncc(Cl)c3)ccc2NS(C)(=O)=O)c(C)n1
< 1 µM
Cc1cc(C)c(Oc2nc(-n3ccc(C#N)n3)ccc2NS(C)(=O)=O)c(C)c1
1 to 10 µM

Task: Which EC50 reading was recorded for the compound Cc1cc(C)c(Oc2nc(N3CCN(S(C)(=O)=O)CC3)ccc2NS(C)(=O)=O)c(C)c1 ?
Output: 1 to 10 µM

====

Reported pEC50 is given for each of the following compounds.
MEASURED_TARGET: ABCC6 WT (Homo sapiens, UniProt O95255)
Sequence (O95255 whole entry): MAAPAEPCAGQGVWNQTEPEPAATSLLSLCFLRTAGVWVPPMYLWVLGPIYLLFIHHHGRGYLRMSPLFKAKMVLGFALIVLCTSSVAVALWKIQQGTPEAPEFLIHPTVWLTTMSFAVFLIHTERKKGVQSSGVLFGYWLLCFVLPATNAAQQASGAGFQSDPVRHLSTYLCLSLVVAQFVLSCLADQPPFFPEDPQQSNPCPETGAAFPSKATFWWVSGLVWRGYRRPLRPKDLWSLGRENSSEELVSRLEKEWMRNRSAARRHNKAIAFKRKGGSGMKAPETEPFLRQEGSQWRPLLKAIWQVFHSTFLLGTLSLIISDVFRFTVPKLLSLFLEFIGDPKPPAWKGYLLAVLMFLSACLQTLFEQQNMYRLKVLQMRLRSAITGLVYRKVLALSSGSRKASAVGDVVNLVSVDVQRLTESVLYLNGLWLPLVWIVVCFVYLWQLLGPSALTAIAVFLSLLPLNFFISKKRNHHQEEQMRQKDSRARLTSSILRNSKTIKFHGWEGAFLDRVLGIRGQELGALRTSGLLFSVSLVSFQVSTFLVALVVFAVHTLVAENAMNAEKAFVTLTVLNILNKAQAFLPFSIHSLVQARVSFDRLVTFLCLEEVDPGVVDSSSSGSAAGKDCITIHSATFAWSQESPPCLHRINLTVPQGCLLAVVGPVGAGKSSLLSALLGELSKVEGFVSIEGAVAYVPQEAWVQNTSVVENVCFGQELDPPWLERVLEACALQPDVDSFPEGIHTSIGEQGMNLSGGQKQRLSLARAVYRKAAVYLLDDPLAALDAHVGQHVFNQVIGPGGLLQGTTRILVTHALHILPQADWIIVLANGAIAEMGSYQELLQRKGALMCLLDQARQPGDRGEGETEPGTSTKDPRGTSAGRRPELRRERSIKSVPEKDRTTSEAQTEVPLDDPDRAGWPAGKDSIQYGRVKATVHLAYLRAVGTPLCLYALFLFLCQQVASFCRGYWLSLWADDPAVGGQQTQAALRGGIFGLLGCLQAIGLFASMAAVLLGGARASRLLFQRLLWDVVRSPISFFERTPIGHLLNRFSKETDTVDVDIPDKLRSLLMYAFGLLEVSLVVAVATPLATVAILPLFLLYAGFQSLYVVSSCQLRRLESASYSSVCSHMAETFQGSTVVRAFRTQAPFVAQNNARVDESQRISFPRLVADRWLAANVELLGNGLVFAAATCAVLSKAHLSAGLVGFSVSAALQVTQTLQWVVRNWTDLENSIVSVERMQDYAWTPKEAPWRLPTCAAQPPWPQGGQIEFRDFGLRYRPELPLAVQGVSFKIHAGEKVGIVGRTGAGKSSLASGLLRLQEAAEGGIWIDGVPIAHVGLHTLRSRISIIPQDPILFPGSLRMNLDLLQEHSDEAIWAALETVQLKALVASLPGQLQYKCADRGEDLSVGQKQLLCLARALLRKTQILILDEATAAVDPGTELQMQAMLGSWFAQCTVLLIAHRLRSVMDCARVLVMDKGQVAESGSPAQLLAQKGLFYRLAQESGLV
PROTOCOL_NOTES: ABCC6 WT assay: HiBit protein expression
CONDITION_NOTES: HEK-293 cells transiently expressing HiBit-tagged ABCC6 WT; 24 h treatment; top concentration 20 μM; read-out: ABCC6 WT EC50, Emax
pEC50: −log10 of the molar value.

Cc1cc(N2CC(F)(F)C2)nc(C)c1Oc1nc(-c2cncc(C#N)c2)ccc1NS(C)(=O)=O
> 6.00

Task: What value of pEC50 has been recorded for this entry: CNS(=O)(=O)c1ccc(-c2cncc(C#N)c2)nc1Oc1c(C)nc(C(F)F)nc1C1CC1
Output: 5.00 to 6.00

Task: // query pEC50 value for entry Cc1nc(C(F)(F)F)cc(C2CC2)c1Oc1nc(-c2cncc(C#N)c2)ccc1NS(C)(=O)=O
Output: > 6.00
